assay: solvent given as SMILES; details: in O=P(c1ccccc1)(c1ccccc1)c1ccc2oc3ccc(P(=O)(c4ccccc4)c4ccccc4)cc3c2c1
quantity: emission maximum (nm)
Give a bare numeral; the unit nm is implied.

I have this compound here, c1ccc(-c2nc(-c3ccccc3)nc(-c3ccc(-n4c5ccccc5c5ccc6c(c7ccccc7n6-c6ccccc6)c54)cc3)n2)cc1 , and I need its recorded emission maximum.
479

I have this compound here, Cc1ccc2c(c1)C1(c3ccccc3-c3ccccc31)c1cc(C)ccc1N2c1ccc(-c2nc(-c3ccccc3)cc(-c3ccccc3)n2)cc1 , and I need its recorded emission maximum.
464

I have this compound here, Cc1cc(C)c2c(c1)c1cc(C)cc(C)c1n2-c1ccc2c(c1)Sc1cc3c(cc1B2c1c(C(C)C)cc(C(C)C)cc1C(C)C)B(c1c(C(C)C)cc(C(C)C)cc1C(C)C)c1ccccc1S3 , and I need its recorded emission maximum.
483

I have this compound here, c1ccc(-c2nc(-c3ccccc3)nc(-c3ccc(-n4c5ccccc5c5cc6c7ccccc7n7c8ccccc8c(c54)c67)cc3)n2)cc1 , and I need its recorded emission maximum.
460

* * *

assay: solvent given as SMILES; details: in CO
quantity: emission maximum
Express the reported value numerically, then name its unit.

Here's what some known entries look like.
INSERT INTO results (molecule, quantity, recorded_measurement) VALUES
  ('NS(=O)(=O)c1ccc(N2N=C(c3ccc(O)cc3)CC2c2ccc([N+](=O)[O-])cc2)cc1 (stereo not given)', 'emission maximum', '434 nm'),
  ('Cc1cc(-c2ccccc2)nc2c1ccc1nc(-c3ccccc3)cn12', 'emission maximum', '450 nm'),
  ('CC(C)c1ccc2ccc3cccc4ccc1c2c34', 'emission maximum', '376 nm'),
  ('[C-]#[N+]c1ccc(-c2ccc(N)cc2)cc1', 'emission maximum', '419 nm'),
  ('c1ccc2c(c1)CCc1c-2cnc2c1-c1ccccc1CC2', 'emission maximum', '361 nm');

I have this molecule here, COc1ccc(NC(=O)C(C(=O)Nc2ccc(OC)cc2)C(c2ccccc2O)c2c(C)[nH]c3ccccc23)cc1 (stereo not given) , and I need its recorded emission maximum.
350 nm

I have this molecule here, N#Cc1ccc(C#Cc2ccc3ccc4ccc(C#Cc5ccc(C#N)cc5)c5ccc2c3c45)cc1 , and I need its recorded emission maximum.
445.3 nm

* * *

assay: solvent given as SMILES; conditions: in C1CCCCC1
quantity: emission maximum (nm)
Give a bare numeral; the unit nm is implied.

Here's what some known entries look like.
INSERT INTO measurements (input_smiles, result_units, recorded_measurement) VALUES
  ('CN(C)c1ccc2nc(-c3ccc(C=C4C(=O)c5ccccc5C4=O)cc3)sc2c1', 'nm', 535),
  ('Cc1ccc(C2=C3C=c4c(oc5ccccc45)=[N+]3[B-](F)(F)n3c2cc2c4ccccc4oc23)cc1', 'nm', 596.5),
  ('COc1c2ccccc2c(OC)c2c1c1c(C)ccc(OC)c1n2C', 'nm', 427),
  ('CCCN1/C(=C\c2c(-c3ccc(N(C)C)cc3)c(=O)c2=O)C=Cc2ccccc21', 'nm', 428),
  ('CC(=O)c1ccc(-c2nc3ccc(N(C)C)cc3s2)cc1', 'nm', 435),
  ('CCC1=C(C)C2=C(C)c3cc(I)cn3[B-](F)(F)[N+]2=C1C', 'nm', 532),
  ('N#C/C(=C\c1cc(/C=C(\C#N)c2ccc(C(F)(F)F)cc2)c(-c2ccc(N(c3ccccc3)c3ccccc3)cc2)cc1-c1ccc(N(c2ccccc2)c2ccccc2)cc1)c1ccc(C(F)(F)F)cc1', 'nm', 478),
  ('CN(C)c1ccc2c3c(ccc2c1)CCCC3=O', 'nm', 449);

I have this compound here, CCC1=C(C)C(=O)n2c1cc1c(c(C)c(C(=O)OCC(C)C)n1CC(C)C)c2=O , and I need its recorded emission maximum.
437

* * *

Measured emission maximum of individual entries
test: solvent given as SMILES; conditions: in ClCCl

Here's what some known entries look like.
INSERT INTO results (input_smiles, quantity, recorded_measurement) VALUES
  ('Cc1cc(-c2ccccc2)nc2c1ccc1nc(-c3ccccc3)cn12', 'emission maximum', '450 nm'),
  ('CCCCn1c(-c2ccc(-c3nnc(-c4ccc(-c5nc6ccccc6n5CCCC)cc4)o3)cc2)nc2ccccc21', 'emission maximum', '407 nm'),
  ('Fc1ccc(-c2cccc3ncc(-c4ccccc4)n23)cc1', 'emission maximum', '469 nm'),
  ('COc1ccc2cc(/C=C/C3=CC(c4ccccc4)=[O+][B-](F)(F)O3)ccc2c1', 'emission maximum', '566 nm'),
  ('CN(C)c1ccc(C#Cc2ccc3ccc4c(C#Cc5ccc(N(C)C)cc5)ccc5ccc2c3c54)cc1', 'emission maximum', '532.8 nm'),
  ('Cn1c2ccccc2c2cc(/C=C/C3=[O+][B-](F)(F)OC(/C=C/c4ccc5c(c4)c4ccccc4n5C)=C3c3ccccc3)ccc21', 'emission maximum', '636 nm'),
  ('CCCCn1c2ccc(/C=C(\C#N)c3ccc([N+](=O)[O-])cc3)cc2c2cc(Cn3c(-c4ccc5c(c4)c4ccccc4n5CCCC)nc4ccccc43)ccc21', 'emission maximum', '568 nm');

# context switch: different molecule, same emission maximum
I have this molecule here, CN(C)c1ccc(/C=C/c2nc(N3CCOCC3)c3c([n+]2[O-])CCCC3)cc1 , and I need its recorded emission maximum.
523 nm

* * *

experiment: solvent given as SMILES; settings: in ClC(Cl)Cl
quantity: emission maximum
Express the reported value numerically, then name its unit.

INSERT INTO assay_data (input_smiles, recorded_measurement) VALUES
  ('CN(C)c1ccc2nc(-c3ccc(C(=O)OC[C@H](NC(=O)OC(C)(C)C)C(=O)OCc4ccccc4)cc3)sc2c1', '504 nm'),
  ('COc1ccc(-c2cc3ccc4cc(-c5ccc(OC)cc5)cc5ccc(c2)c3c45)cc1', '417.61 nm'),
  ('CCCCCCN1C(=O)c2cccc3cc(/N=C\c4ccc(N(c5ccccc5)c5ccccc5)cc4)cc(c23)C1=O', '565 nm'),
  ('CN1C(=CC2=C([O-])C(=CC3=[N+](C)c4ccccc4C3(C)C)C2=C2C(=O)NC(=O)NC2=O)C(C)(C)c2ccccc21', '665 nm'),
  ('CC(=O)O[B-]1(OC(C)=O)OC(/C=C/C=C/c2ccccc2)=CC(/C=C/C=C/c2ccccc2)=[O+]1', '543 nm');

I have this molecule here, O=S(=O)(/N=c1\oc2cccc3c4c(-c5ccccc5)oc5cccc(c(c1-c1ccccc1)c23)c54)C(F)(F)F , and I need its recorded emission maximum.
558 nm

I have this molecule here, CN(C)c1cccc2c1ccc1c(=O)oc(-c3ccc(C(F)(F)F)cc3)cc12 , and I need its recorded emission maximum.
538 nm

I have this molecule here, N#Cc1c2oc3ccccc3oc2c(C#N)c2oc3ccccc3oc12 , and I need its recorded emission maximum.
475 nm

* * *

assay: solvent given as SMILES; details: in CO
Measured emission maximum of individual entries
Express the reported value numerically, then name its unit.

INSERT INTO assay_data (molecule, recorded_measurement) VALUES
  ('O=S(=O)(O)c1cccc2cccc(Nc3ccccc3)c12', '490 nm'),
  ('Cc1ccc(C2=C3C=CC=[N+]3[B-](F)(F)n3cccc32)cc1', '513.5 nm'),
  ('CN1C(=CC=Cc2nc3nc4ccccc4nc3s2)C(C)(C)c2ccccc21', '623 nm'),
  ('CCn1c2ccccc2c2cc(/C=C/C(=O)c3ccc4c(c3)c3cc(C(=O)/C=C/c5ccc6c(c5)c5ccccc5n6CC)ccc3n4CC)ccc21', '542 nm');

I have this molecule here, CCN(C)c1ccc(C2=C3C(C)=CC(C)=[N+]3[B-](F)(F)n3c(C)cc(C)c32)cc1 , and I need its recorded emission maximum.
513 nm

I have this molecule here, CCC1=C(C)C(=O)n2c1cc1c(c(C)c(C(=O)OC)n1C)c2=O , and I need its recorded emission maximum.
501 nm

I have this molecule here, C(=C\c1nc2ccccc2s1)/c1ccc(-c2nc3c4cccnc4c4ncccc4c3[nH]2)cc1 , and I need its recorded emission maximum.
488 nm

I have this molecule here, COc1ccc(-c2nc(N)nc(C#N)c2C#N)cc1OC , and I need its recorded emission maximum.
442 nm

I have this molecule here, COc1nc(Nc2cc3ccc4cccc5ccc(c2)c3c45)nc(OC)n1 , and I need its recorded emission maximum.
392 nm

I have this molecule here, CC1=C(c2cccs2)C(C)=[N+]2C1=C(c1ccc(O)cc1)c1c(C)c(-c3cccs3)c(C)n1[B-]2(F)F , and I need its recorded emission maximum.
602 nm

I have this molecule here, CN(C)c1ccc(C#Cc2ccc3ccc4c(C#Cc5ccc(N(C)C)cc5)ccc5ccc2c3c54)cc1 , and I need its recorded emission maximum.
554 nm

I have this molecule here, N[C@@H](Cn1nnc2cc(-c3ccc(N4CCOCC4)cc3)ccc21)C(=O)O , and I need its recorded emission maximum.
384 nm

I have this molecule here, O=C1c2ccccc2-c2cc3ccccc3c(=O)n21 , and I need its recorded emission maximum.
445 nm

I have this molecule here, c1ccc(-c2nc(-c3ccccc3)c(-c3ccccc3)[nH]2)cc1 , and I need its recorded emission maximum.
386.5 nm

I have this molecule here, CC1(C)C(/C=C/C2=C(Cl)C(=C/C=C3/N(Cc4ccccc4)c4ccccc4C3(C)C)/CCC2)=[N+](Cc2ccccc2)c2ccccc21 , and I need its recorded emission maximum.
813 nm

I have this molecule here, O=C1/C(=C2\Sc3ccccc3C2=O)Sc2ccccc21 , and I need its recorded emission maximum.
624 nm

I have this molecule here, CCC1=C(C)C(=O)n2c1cc1c(C)c(CCC(=O)OC)c(C)n1c2=O , and I need its recorded emission maximum.
530 nm

I have this molecule here, O=C1Nc2ccccc2/C1=C/C(=O)c1ccccc1 , and I need its recorded emission maximum.
412 nm

I have this molecule here, CC1=CC(/C=C/c2ccc(OCCCN=[N+]=[N-])cc2)=[N+]2C1=C(c1ccc(N(C)C)cc1)c1c(C)cc(C)n1[B-]2(F)F , and I need its recorded emission maximum.
586 nm

I have this molecule here, O=C1/C(=C2\Sc3ccc(S(=O)(=O)Nc4ccccc4)cc3C2=O)Sc2ccc(S(=O)(=O)Nc3ccccc3)cc21 , and I need its recorded emission maximum.
618 nm

I have this molecule here, Cc1ccc(C2=C3C=C(I)C(I)=[N+]3[B-](F)(F)n3c2cc(I)c3I)cc1 , and I need its recorded emission maximum.
593.5 nm
